Target: UniProtKB P37387
Sequence (P37387 24-330): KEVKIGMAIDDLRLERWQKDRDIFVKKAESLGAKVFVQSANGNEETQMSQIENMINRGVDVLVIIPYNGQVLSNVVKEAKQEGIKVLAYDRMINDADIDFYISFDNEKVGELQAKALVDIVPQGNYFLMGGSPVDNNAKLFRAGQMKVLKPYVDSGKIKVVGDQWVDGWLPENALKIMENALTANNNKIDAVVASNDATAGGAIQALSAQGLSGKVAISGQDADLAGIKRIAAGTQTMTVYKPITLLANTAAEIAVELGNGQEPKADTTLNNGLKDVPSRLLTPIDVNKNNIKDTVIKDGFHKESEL
MEASURED_PROPERTY: Kd (nM)
The reply should be a number in nM, with the unit left off.

Query (compound): OC1OC[C@@H](O)[C@H](O)[C@H]1O (stereo partly shown) ; field requested: Kd 140

* * *

Target: 2621B (XynA inserted in XBP at position 262)
Construct: single polypeptide: XBP to Q262, linker GGGG, XynA (1-185), linker GA, XBP from residue 263; pET28a, E. coli Rosetta (DE3), Ni-NTA (His tag not described); with Endo-1,4-beta-xylanase A
Assay: intrinsic tryptophan fluorescence titration
Conditions: 20 mM Hepes pH 7.5, 25 °C; 3 µM protein; XBP domain site, allosteric activator of xylanase
MEASURED_PROPERTY: Kd (nM)
The reply should be a number in nM, with the unit left off.

Query (compound): OC1OC[C@@H](O)[C@H](O)[C@H]1O (stereo partly drawn) [D-xylose] ; field requested: Kd 160
